From: PubChem BioAssay (Tox21)

Assay: qHTS assay for small molecule agonists of the antioxidant response element (ARE) signaling pathway - cell viability counter screen (AID 743203); further: nearly all actives have a fitted effect of over 55% in size; further: potency means the concentration at half of the fitted maximal effect
Conditions: ARE-bla HepG2 viability, CellTiter-Glo luminescence, 16 h; series mostly up to 73.3 µM
Excerpt: National Center for Advancing Translational Sciences [NCATS] NIH Chemical Genomics Center [NCGC] U.S. Environmental Protection Agency [EPA] National Institutes of Environmental Health Sciences [NIEHS] National Toxicology Program [NTP] U.S. Food and Drug Administration [FDA] Oxidative stress has been implicated in the pathogenesis of a variety of diseases ranging from cancer to neurodegeneration. […] The activation of the report gene under culture conditions can be detected by fluorescence intensity. […]
Records with an inconclusive call do not appear. Activity calls are given as the source filed them. The call rests on the fitted dose curve.
Measurement Kind: Potency

Clc1ccc(C(c2ccc(Cl)cc2)C(Cl)Cl)cc1    54.5 µM (active)
N#CCCl    inactive
Cc1cccc(Cc2cnc[nH]2)c1C    inactive
O=C(NC(=O)c1ccccc1Cl)Nc1ccc(OC(F)(F)F)cc1    inactive
[C-]1=CC=CC1.[Cl][Zr+2][Cl].c1cc[cH-]c1    inactive

Hi, could you look up Potency for each item in my list?
1. CC(C)NCC(O)c1ccccc1Cl (configuration not stated)
2. CCCCn1cc[n+](C)c1 (tested in a mixture with another compound)
3. CN1C2CCC(C)(C)C1CC(OC(=O)C(O)(c1cccs1)c1cccs1)C2 (configuration not stated)
4. CN(C)c1ccc(N)cc1
5. CC(O)C(=O)[O][Hg][c]1ccccc1 (configuration not stated)
6. O=C(O)[C@H](O)[C@@H](O)C(=O)O

Ans:
1. inactive
2. inactive
3. inactive
4. inactive
5. 0.686 µM (active)
6. inactive

Q: For `COP(=O)(OC)Oc1ccc([N+](=O)[O-])cc1` , what is its reported Potency?
Ans: inactive

----------
Experiment: qHTS RealTime-Glo MT Cell Viability Assay in HepG2 cells - 40 hour (AID 1224870); further: nearly all actives have a fitted effect of over 50% in size
Conditions: RealTime-Glo luminescence; series mostly up to 76.8 µM
Records with an inconclusive call do not appear. Active and inactive are the calls of the source. The call rests on the fitted dose curve; in most records, active means well fitted cell-killing curve with a large enough effect in the repeat runs; inconclusive means weak or mixed curves, or effect the other way; inactive means flat fitted curve, though single readings scatter.
Mark one answer only. Choices: active, inactive

Here are 5 molecules together with their reported answers.
CN(C)c1ccc(N)cc1    inactive
O=c1c2ccccc2c(=O)c2c1cc(Cl)c1[nH]c3c([nH]c12)c(Cl)cc1c(=O)c2ccccc2c(=O)c13    inactive
Cc1cccc(Cc2cnc[nH]2)c1C    inactive
COC(=O)c1cc(Oc2ccc(Cl)cc2Cl)ccc1[N+](=O)[O-]    inactive
CC(C)=CCN1CC[C@@]2(C)c3cc(O)ccc3C[C@@H]1[C@@H]2C    inactive

Q: Answer briefly: the call reported for ClC1(Cl)C2(Cl)C3(Cl)C4(Cl)C(Cl)(Cl)C5(Cl)C3(Cl)C1(Cl)C5(Cl)C24Cl (stereo unspecified) in this assay.
Ans: inactive

Q: Answer briefly: the call reported for `CCCCCCCc1ccc(O)cc1` in this assay.
Ans: inactive

Q: Answer briefly: the call reported for `N#CC(C#N)=NNc1cccc(Cl)c1` in this assay.
Ans: active

Q: Answer briefly: the call reported for `O.O.O.O.O.O.O.O=S(=O)([O-])[O-].[Co+2]` in this assay.
Ans: inactive

Q: Answer briefly: the call reported for CCCC[N+]1(C)CCCC1 (tested in a mixture with another compound) in this assay.
Ans: inactive

Q: Answer briefly: the call reported for `Oc1cc(Cl)c(Cl)c(Cl)c1Cl` in this assay.
Ans: inactive

----------
Test: qHTS assay to identify small molecule antagonists of the retinoid acid receptor (RAR) signaling pathway - cell viability counter screen (AID 1159551); further: nearly all actives have a fitted effect of over 35% in size
Settings: C3RL4 cells viability, ATP luminescence (CellTiter-Glo), 6 h; series mostly up to 92.4 µM
Protocol: U.S. Tox21 Program National Center for Advancing Translational Sciences [NCATS] NIH Chemical Genomics Center [NCGC] U.S. Environmental Protection Agency [EPA] National Institutes of Environmental Health Sciences [NIEHS] National Toxicology Program [NTP] U.S. Food and Drug Administration [FDA] […] Also cytotoxicity was assessed by determining the viability of cells based on the quantitation of ATP. […]
Records with an inconclusive call do not appear. Calls of active or inactive are those of the source. Calls come from the whole dose curve; as a rule, active = well fitted cell-killing curve with a large enough effect in the repeat runs; inconclusive = weak or mixed curves, or effect the other way; inactive = flat fitted curve, though single readings scatter.
Mark one answer only. Choices: active, inactive

CN(C)C(=S)SSC(=S)N(C)C    active
COc1c2c(cc3c1OCO3)CCN(C)C2    inactive
Cc1cnc2c(C(=O)O)c(Cl)ccc2c1    inactive
Clc1ccc(C(c2ccc(Cl)cc2)C(Cl)Cl)cc1    inactive
[O-][Cl+3]([O-])([O-])O    inactive

Q: Answer briefly: the call reported for `CCC[CH2][Sn]([CH2]CCC)([O]C(C)=O)[O]C(C)=O` in this assay.
Ans: inactive

Q: Answer briefly: the call reported for `Oc1cc(Cl)cc(Cl)c1` in this assay.
Ans: inactive

----------
Test: qHTS assay to identify small molecule antagonists of the sonic hedgehog signaling (Shh) pathway - cell viability counter screen (AID 1259367); further: nearly all actives have a fitted effect of over 55% in size
Conditions: NIH/3T3 Gli1-Luc viability, CellTiter-Fluor, 24 h; series mostly up to 92.4 µM
Records with an inconclusive call do not appear. Active and inactive are the calls of the source. The call rests on the fitted dose curve; in most records, active means well fitted cell-killing curve with a large enough effect in the repeat runs; inconclusive means weak or mixed curves, or effect the other way; inactive means no such curve, though single readings can be large or run the other way.
Mark one answer only. Choices: active, inactive

ClCBr    inactive
c1ccc2nc(N3CCNCC3)ccc2c1    inactive
c1cc[n+]2c(c1)-c1cccc[n+]1CC2    inactive
COC(=O)c1ccccc1S(=O)(=O)NC(=O)Nc1nc(C)nc(OC)n1    inactive
CC(Cc1ccc(O)cc1)NCC(O)c1cc(O)cc(O)c1 (centres undefined)    active
ClC1=C(Cl)[C@]2(Cl)[C@H]3[C@H]([C@@H]4C=C[C@H]3C4)[C@@]1(Cl)C2(Cl)Cl    inactive

Q: Answer briefly: the call reported for `O=c1[nH]c(Cl)c(Cl)cc1Cl` in this assay.
Ans: inactive

Q: Answer briefly: the call reported for OCC(Br)CBr (centres undefined) in this assay.
Ans: inactive

Q: Answer briefly: the call reported for `O=c1[nH]c2cc(Cl)ccc2n1C1CCNCC1` in this assay.
Ans: inactive

----------
Test: qHTS assay to identify small molecule antagonists of the peroxisome proliferator-activated receptor gamma (PPARg) signaling pathway - cell viability counter screen (AID 743194); further: nearly all actives have a fitted effect of over 55% in size
Details: PPARg-bla HEK293H viability, CellTiter-Glo luminescence, 17 h; co-treated with 50 nM rosiglitazone unless noted; series mostly up to 62.6 µM
Records with an inconclusive call do not appear. The source made the active and inactive calls. The call rests on the fitted dose curve; in most records, active means well fitted cell-killing curve with a large enough effect in the repeat runs; inconclusive means weak or mixed curves, or effect the other way; inactive means no such curve, though single readings can be large or run the other way.
Mark one answer only. Choices: T (active), F (inactive)

Cc1cc2c3c(c1)C(c1ccccc1)=N[C@@H](NC(=O)c1ccncc1)C(=O)N3CC2    F
CC#C[C@]1(O)CC[C@H]2[C@@H]3C[C@H](C)C4=CC(=O)CC[C@]4(C)[C@H]3CC[C@@]21C    F
Cc1c([N+](=O)[O-])c(C)c([N+](=O)[O-])c(C(C)(C)C)c1[N+](=O)[O-]    F
[Cl][Hg][c]1ccccc1    T

Q: Answer briefly: the call reported for OCC(Br)CBr (stereo unspecified) in this assay.
Ans: F

Q: Answer briefly: the call reported for `COc1ccc(Cc2nccc3cc(OC)c(OC)cc23)cc1OC` in this assay.
Ans: F

Q: Answer briefly: the call reported for `c1csc(-c2ccc(-c3cccs3)s2)c1` in this assay.
Ans: F

Q: Answer briefly: the call reported for `C=CC(=O)[O][Sn]([CH2]CCC)([CH2]CCC)[CH2]CCC` in this assay.
Ans: T

Q: Answer briefly: the call reported for `C=CCOC(=O)c1ccccc1N` in this assay.
Ans: F

Q: Answer briefly: the call reported for CCC(C)Nc1c([N+](=O)[O-])cc(C(C)(C)C)cc1[N+](=O)[O-] (stereo unspecified) in this assay.
Ans: F

Q: Answer briefly: the call reported for CCOP(=S)(OCC)SC(CCl)N1C(=O)c2ccccc2C1=O (stereo unspecified) in this assay.
Ans: F

----------
Target: Androgen receptor (Homo sapiens) (UniProt P10275)
Sequence (P10275 whole entry, looked up): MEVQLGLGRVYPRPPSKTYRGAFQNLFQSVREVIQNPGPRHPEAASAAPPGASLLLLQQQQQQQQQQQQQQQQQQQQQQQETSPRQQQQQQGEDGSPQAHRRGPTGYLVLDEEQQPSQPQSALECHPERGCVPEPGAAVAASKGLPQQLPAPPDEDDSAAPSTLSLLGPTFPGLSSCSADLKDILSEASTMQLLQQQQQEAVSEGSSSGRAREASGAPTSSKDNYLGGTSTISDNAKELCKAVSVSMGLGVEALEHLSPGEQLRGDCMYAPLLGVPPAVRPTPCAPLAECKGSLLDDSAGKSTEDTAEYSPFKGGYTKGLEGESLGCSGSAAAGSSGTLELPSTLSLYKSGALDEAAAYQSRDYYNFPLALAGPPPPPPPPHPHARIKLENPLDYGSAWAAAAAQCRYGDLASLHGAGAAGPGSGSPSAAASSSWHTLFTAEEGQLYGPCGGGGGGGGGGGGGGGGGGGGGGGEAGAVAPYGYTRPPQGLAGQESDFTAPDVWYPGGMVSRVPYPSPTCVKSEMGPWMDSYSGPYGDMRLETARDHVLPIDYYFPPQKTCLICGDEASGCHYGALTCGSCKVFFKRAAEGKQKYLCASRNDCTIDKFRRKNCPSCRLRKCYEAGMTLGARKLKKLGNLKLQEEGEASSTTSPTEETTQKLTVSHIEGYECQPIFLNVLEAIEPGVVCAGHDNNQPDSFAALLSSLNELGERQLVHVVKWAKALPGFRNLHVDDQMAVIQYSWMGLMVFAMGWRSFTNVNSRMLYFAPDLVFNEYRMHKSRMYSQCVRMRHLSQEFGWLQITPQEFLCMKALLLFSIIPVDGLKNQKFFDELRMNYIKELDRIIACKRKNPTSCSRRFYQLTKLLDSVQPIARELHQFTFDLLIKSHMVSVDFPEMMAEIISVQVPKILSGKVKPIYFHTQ
Test: qHTS assay to identify small molecule antagonists of the androgen receptor (AR) signaling pathway using the MDA cell line in the presence of 0.5 nM R1881 (AID 1259243); further: nearly all actives have a fitted effect of over 50% in size
Conditions: MDA-kb2 MMTV-luciferase, R1881 0.5 nM, 16 h; series mostly up to 92.4 µM
Records with an inconclusive call do not appear. Calls of active or inactive are those of the source. Calls come from the whole dose curve; as a rule, active = well fitted inhibition curve with a large enough effect in the repeat runs; inconclusive = weak or mixed curves; inactive = no such curve, though single readings can be large or run the other way.
Mark one answer only. Choices: active, inactive

CCNS(=O)(=O)C(F)(F)C(F)(F)C(F)(F)C(F)(F)C(F)(F)C(F)(F)C(F)(F)C(F)(F)F    inactive
CC(C)N(C(=O)CCl)c1ccccc1    active
BrCCCBr    inactive

Now for a further compound.
Q: Answer briefly: the call reported for `CCCCCCCc1ccc(O)cc1` in this assay.
Ans: active

----------
Molecular target: Estrogen receptor (Homo sapiens) (UniProt P03372)
Sequence (P03372 whole entry, looked up): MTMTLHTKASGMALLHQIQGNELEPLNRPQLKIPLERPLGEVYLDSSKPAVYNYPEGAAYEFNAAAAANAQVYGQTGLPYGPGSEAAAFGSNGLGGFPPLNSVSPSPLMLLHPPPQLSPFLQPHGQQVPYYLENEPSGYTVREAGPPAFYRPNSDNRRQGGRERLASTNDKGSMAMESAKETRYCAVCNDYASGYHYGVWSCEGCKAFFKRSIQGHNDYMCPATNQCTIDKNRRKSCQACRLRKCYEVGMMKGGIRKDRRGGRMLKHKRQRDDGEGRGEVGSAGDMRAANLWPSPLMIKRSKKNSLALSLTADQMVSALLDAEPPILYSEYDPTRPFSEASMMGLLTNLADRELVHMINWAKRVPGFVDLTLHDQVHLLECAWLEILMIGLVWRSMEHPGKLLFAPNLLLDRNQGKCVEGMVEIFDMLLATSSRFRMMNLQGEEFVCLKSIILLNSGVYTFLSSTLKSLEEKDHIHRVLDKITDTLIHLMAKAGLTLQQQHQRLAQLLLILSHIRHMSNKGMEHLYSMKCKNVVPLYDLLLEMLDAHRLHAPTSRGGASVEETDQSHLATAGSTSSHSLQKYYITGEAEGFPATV
Assay: qHTS assay to identify small molecule antagonists of the estrogen receptor alpha (ER-alpha) signaling pathway using the BG1 cell line in the presence of 0.1 nM 17-beta-estradiol (AID 1259244); further: nearly all actives have a fitted effect of over 50% in size
Conditions: VM7Luc4E2 (BG1) ERE-luciferase, antagonist mode, 0.1 nM E2, 22 h; series mostly up to 92.4 µM
Results filed as inconclusive are left out. Active and inactive are the calls of the source. The call rests on the fitted dose curve; in most records, active means well fitted inhibition curve with a large enough effect in the repeat runs; inconclusive means weak or mixed curves; inactive means no such curve, though single readings can be large or run the other way.
Mark one answer only. Choices: active, inactive

Here are 4 compounds together with their reported answers.
CN/C(=N\[N+](=O)[O-])NCc1cnc(Cl)s1    inactive
N#CSCc1ccccc1    inactive
COC(=O)N(OC)c1ccccc1COc1ccn(-c2ccc(Cl)cc2)n1    active
C[C@H]1[C@H](c2ccc(Cl)cc2)SC(=O)N1C(=O)NC1CCCCC1    active

Now for a further compound.
Q: Answer briefly: the call reported for CN1C2CCC(C)(C)C1CC(OC(=O)C(O)(c1cccs1)c1cccs1)C2 (centres undefined) in this assay.
Ans: inactive
